Measured values drawn from ChEMBL document CHEMBL1140743 for this set.

# assay_text: Metabolic stability assessed as half life in mouse liver microsomes
# Type: ADME, Microsome
# conditions_used: liver microsomes
metric_name: half-life (min)
Numbers only, in min.

Parameter requested: half-life. Apply to each item below.
1. Cn1cnc(S(=O)(=O)N(Cc2ccc(-n3cccn3)cc2)C2Cc3cc(C#N)ccc3N(Cc3cncn3C)C2=O)c1 (centres undefined)
2. Cn1cnc(S(=O)(=O)N(Cc2ccc(S(C)(=O)=O)cc2)C2Cc3cc(C#N)ccc3N(Cc3cncn3C)C2=O)c1 (centres undefined)

1. 9
2. 133

Answer for every listed entry: what is its half-life? The entries follow.
1. Cn1cnc(S(=O)(=O)N(CC(=O)NC(C)(C)C)C2Cc3cc(C#N)ccc3N(Cc3cncn3C)C2=O)c1 (centres undefined)
2. Cn1cnc(S(=O)(=O)N(CC(=O)OC(C)(C)C)C2Cc3cc(C#N)ccc3N(Cc3cncn3C)C2=O)c1 (centres undefined)
3. Cn1cnc(S(=O)(=O)N(Cc2ccc(C#N)cc2)C2Cc3cc(C#N)ccc3N(Cc3cncn3C)C2=O)c1 (centres undefined)

1. 144
2. 21
3. 40

Please give half-life for each item listed below.
1. Cn1cnc(S(=O)(=O)N(CC(=O)NC(C)(C)C)C2Cc3cc(C#N)ccc3N(Cc3cncn3C)C2)c1 (centres undefined)
2. Cn1cncc1CN1C(=O)C(N(CC(=O)NC(C)(C)C)S(=O)(=O)c2cccc(F)c2)Cc2cc(C#N)ccc21 (centres undefined)
3. Cn1cnc(S(=O)(=O)N(Cc2ccc(C#N)cc2)C2Cc3cc(C#N)ccc3N(Cc3cncn3C)C2)c1 (centres undefined)

1. 17
2. 31
3. 3

Specify reported half-life for the compound shown: Cn1cnc(S(=O)(=O)N(CC(=O)OC(C)(C)C)C2Cc3cc(C#N)ccc3N(Cc3cncn3C)C2)c1 (centres undefined)
10
